- protocol: yeast display, Sf9 membrane polyspecificity reagent, FACS + sequencing; frameworks hold sequencing errors
quantity.measured: polyreactivity (PSR sort gate)

[
  {
    "entry.sequence": "QVQLVESGGGLVQAGGSLRLSCAASGRIFTWNGMGWYRQATGKERELVAAITSGGRTYADSVKGRFTISRDNAKNTVYLQMNSLKPEDTAVYYCAADVRRRYIWYDYWGQGTQVTVSS",
    "quantity.measured": "polyreactivity (PSR sort gate)",
    "measured.value": "high polyreactivity"
  },
  {
    "entry.sequence": "QVQLVESGGGLVQAGGSLRLSCAASGFTFYRNVMGWYRQAPGKERELVAAISSRGGSTYYADSVKGRFTISRDNAKNTVYLQMNSLKPEDTAVYYCNKARYTVISYDEYDYWGQGTQVTVSS",
    "quantity.measured": "polyreactivity (PSR sort gate)",
    "measured.value": "high polyreactivity"
  },
  {
    "entry.sequence": "QVQLVESGGGLVQAGGSLRLSCAASGRTFRVYAMGWYRQAPGKERELVAAINGRGGSTYYADSVKGRFTISRDNAKNTVYFQLNSLKPEDTAVYYCNALARTSWRMDYWGQGTQVTVSS",
    "quantity.measured": "polyreactivity (PSR sort gate)",
    "measured.value": "high polyreactivity"
  },
  {
    "entry.sequence": "QVQLVESGGGLVQAGGSLLLSSAASGRTFSINAMGWYRQAHGKERELVAAITWSGGSTYYADSVKGRFTISRDNAKNTVYLQMNSLKPEDTAVYYCNAGLGKFPVKGGRRYRLDYSGQGTQVTVSS",
    "quantity.measured": "polyreactivity (PSR sort gate)",
    "measured.value": "low polyreactivity"
  }
]

Moving on to another sequence below.
Tell us which polyreactivity (PSR sort gate) value is on record for QVQLVESGGGLGQAGGSLRLSCAASGSLITQNALGWYRLAPGKEWELVADISRGSTYSADSVKGRFTISRDNAKNTVYLQLTSLKPEDTALYYSAADDIAHPSFVSTVDVGMDYWGQGPQVTVSS
low polyreactivity

---

- protocol: yeast display, Sf9 membrane polyspecificity reagent, FACS + sequencing; frameworks hold sequencing errors
quantity.measured: polyreactivity (PSR sort gate)

Consider the worked cases shown below.
[
  {
    "entry.sequence": "QVQLVESGGGLVQAGGSLRLSCAASGFTFDVYAKGLYRQAPGKERELVAAISIGANTYYADSVKGRFTISRDNAKSTVYLQMNSLKPEDTAVYYCAKRAYAPQYGYWGQGTQVTVSS",
    "measured.value": "low polyreactivity"
  },
  {
    "entry.sequence": "HVQLVESGGGLVQAGGSLRLSCAASGSIFWGNAMGWYRQAAGKERELVAAISWGGGRTYYADSVKGRFTISRDTAKNTVYLQMNSLKPEDTAVYYCNTRYPYVVSTGYDYWGQGTQVTVSS",
    "measured.value": "high polyreactivity"
  },
  {
    "entry.sequence": "QVQLEESGGGLVQAGVSLRLSCAASGRIFGVYTMGWYRQAPGKERELVAAISRTGGRTYYADSVKGRFTISRDNAKNTVYLQMNSLKPEDTAVYYCAADSRGEDYYYWGQGTQVTVSS",
    "measured.value": "high polyreactivity"
  },
  {
    "entry.sequence": "QVQLVESGGGLVQAGGSLRLSCAASGSIFRAYAMGWYRQAPGKERELVADISIGDNTYYADSVKGRFTISRDNAKNTVYLQMNSLKPEDTAVYYCAAVSDDVPWYWPQYTILDYWGQGTQVTVSS",
    "measured.value": "high polyreactivity"
  }
]

Query polyreactivity (PSR sort gate) for QVHLVESGGGLVQAGGSLRLRCAASGLTSTNNAMGWYRQAPGKERELVAAITSGSTTNYADSVKGRFTISRDNAKNTVYLQMNSLNPEDTAVYYCAAQYGVWWRGYYYPEYDYWGEGTQVTVSS
low polyreactivity

Tell me its polyreactivity (PSR sort gate) given QVQLVESGGGLDQAGGSLRLSCAASGLTFYKYAMGWYRQAPRKERELVASISRTGGSTYYADSVKGRFTISRDNANNTVYLQMNSLKPEDTAFYYCAARRGYYYGRVGYWGQGTQVTVSS as the entry.
high polyreactivity

Give polyreactivity (PSR sort gate) for the following sequence: QVQLVESGGGLVQAGGSLRLSCAASGSIFNYYAMGWYRQAPGQERELVASISRGGSTNYADSVKGRFTISRDNAKNTVYLQMNSLKPEDTAVYYCNAEGWPGNVVYGYYYWGQGTQVTVSS
low polyreactivity

Give me measured polyreactivity (PSR sort gate), please, for this sequence: QVQLVESGGGLVQAGGSLRLSCAASGRIFIYYTMGWYRPAPGKERELVASITWSGGRTYYADSVKGRFTISRDNAKNTVYLQMNSLKPEDNAVYYCNAGYSIGLVAYGYWGQGTQVTVSS
low polyreactivity

Read the entry QVQLVESGGGLVQAGGSLRISCAASGITFNVNAMGWSRQAPGKERELVARITTSGGSTSYADSVKGRFTISRDNAKNTVYLQMNSLKPEDTAVYYCAADRARYYSEYDYWGQGTQVTVSS and write its reported polyreactivity (PSR sort gate).
low polyreactivity

Report polyreactivity (PSR sort gate) for QVQLVESGGGLVQAGGSLRLSCAASGSIFGYNVMGWYRQAPGKERDLVAAITYSGGSTYYADSVKGRFTISRDNAKNTVYLQMNSLKPEDTAVYYCAKVTGRRFPAYGYDHWGQGTQVTVSS
high polyreactivity

Please look at this sequence and report its polyreactivity (PSR sort gate): QVQLVESGGGLVQAGGSLRLSCASSGPIFAYNAIPGYRQAPGKERELVADISSGGNTYYADSVKGRFTISRDNAKNTVYLQMNSLKPEDTAVYYCAADIAWYTHDHRIFDYWGQGTQVTVSS
low polyreactivity
